Catalogue of compounds with associated Average Adhesion (kPa) with 99% CI
# Tested on: mussel
# Test method notes: Mussel plaque adhesion to coated plates (Instron tensile pull of individual plaques)
# Type: in vivo
# Condition label: Coating: 2.5% (w/w); Table 5B, FIG. 6
# Description: In order to obtain insights on the antifouling potential of a given coating, we would benefit from a rapid laboratory method to quantify adhesion. […] The area (m^2) of each plaque is determined by digital photography and use of image analysis software. […] Overall, use of this mussel adhesion assay provides quantitative data on the ability of a candidate antifouling coating to inhibit bioadhesion. […]
Record the value in kPa, omitting the unit from your answer.

Which Average Adhesion (kPa) with 99% CI is listed for Cc1cc(C(C)(C)C)c(O)c(C(C)(C)C)c1 [BHT, butylated hydroxytoluene] ?
87.82

Same again, this time with CC(C)(C)c1cccc(O)c1C(C)(C)C [DTBP, 2,3-di-tert-butylphenol]
89.88

Same again, this time with Cc1cc(C(C)(C)C)c(C)c(C(C)(C)C)c1 [DBT, reference compound]
80.31

Same again, this time with COc1ccccc1 [anisole]
90.03

Same again, this time with CCOc1ccc2c(c1)C(C)=CC(C)(C)N2 [6-ethoxy]
82.60
